Experiment: Oral bioavailability in beagle dog at 1 mg/kg
Type: ADME, organism-based, Canis lupus familiaris
Conditions: in vivo

{"columns": ["COMPOUND STRUCTURE", "bioavailability, %"],
 "data": [
  ["c1cc2oc(-c3ccc(-c4ncc([C@@H]5CCCN5)[nH]4)cc3)cc2cc1-c1cnc([C@@H]2CCCN2)[nH]1", 108]
]}

###

Test: Toxicity in ip dosed Wistar rat
Assay type: organism-based
Conditions: Wistar, in vivo

{"columns": ["COMPOUND", "LD50"],
 "data": [
  ["COC(=O)N[C@H](C(=O)N1CCCC1c1ncc(C#CC#Cc2ccc(-c3cnc(C4CCCN4C(=O)[C@@H](NC(=O)OC)C(C)C)[nH]3)cc2)[nH]1)C(C)C.Cl (single isomer, unassigned; 13a)", "395 mg/kg"]
]}

###

Assay: Oral bioavailability in Sprague-Dawley rat at 5 mg/kg
Format: ADME, organism-based
Details: in vivo

{"columns": ["COMPOUND STRUCTURE", "bioavailability / %"],
 "data": [
  ["COC(=O)N[C@H](C(=O)N1CCC[C@H]1c1ncc(-c2ccc(-c3ccc(-c4cnc([C@@H]5CCCN5C(=O)[C@@H](NC(=O)OC)C(C)C)[nH]4)cc3)cc2)[nH]1)C(C)C", 50]
]}

###

Experiment: Metabolic stability in dog liver microsomes assessed as residual compound at 1 uM after 60 mins
Assay type: ADME, Canis lupus familiaris
Details: read-out: Stability

{"columns": ["COMPOUND", "remaining at 1 h, 1 µM [%]"],
 "data": [
  ["COC(=O)N[C@H](C(=O)N1CCCC1c1ncc(C#CC#Cc2ccc(-c3cnc(C4CCCN4C(=O)[C@@H](NC(=O)OC)C(C)C)[nH]3)cc2)[nH]1)C(C)C.Cl (single isomer, unassigned; 13a)", 84.7]
]}

###

Test: Toxicity in po dosed female SHK mouse
Format: organism-based
Details: female, SHK, in vivo
ENDPOINT: LD50 (mg/kg)

{"columns": ["COMPOUND", "UNIT OF MEASUREMENT", "QUANTITATIVE RESULT"],
 "data": [
  ["COC(=O)N[C@H](C(=O)N1CCCC1c1ncc(C#CC#Cc2ccc(-c3cnc(C4CCCN4C(=O)[C@@H](NC(=O)OC)C(C)C)[nH]3)cc2)[nH]1)C(C)C.Cl (single isomer, unassigned; 13a)", "mg/kg", 3010]
]}

###

Biological target: Cytochrome P450 2C9 (Homo sapiens, UniProt P11712)
Sequence (P11712 whole entry): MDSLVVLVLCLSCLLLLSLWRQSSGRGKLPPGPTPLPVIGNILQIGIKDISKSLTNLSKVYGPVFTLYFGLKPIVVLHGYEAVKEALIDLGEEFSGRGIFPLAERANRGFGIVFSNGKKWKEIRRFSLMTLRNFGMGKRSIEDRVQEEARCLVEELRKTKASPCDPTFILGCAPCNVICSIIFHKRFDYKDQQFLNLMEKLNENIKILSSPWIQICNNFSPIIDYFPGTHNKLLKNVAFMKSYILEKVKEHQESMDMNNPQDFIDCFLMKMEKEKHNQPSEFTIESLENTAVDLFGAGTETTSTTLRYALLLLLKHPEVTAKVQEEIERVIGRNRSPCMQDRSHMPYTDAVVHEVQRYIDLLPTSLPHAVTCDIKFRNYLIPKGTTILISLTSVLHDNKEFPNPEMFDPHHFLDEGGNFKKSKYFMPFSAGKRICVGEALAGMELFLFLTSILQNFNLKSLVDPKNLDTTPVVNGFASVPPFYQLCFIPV
pIC50: −log10 of the molar value.
ENDPOINT: pIC50

{"columns": ["MOLECULE", "RESULT"],
 "data": [
  ["COC(=O)N[C@H](C(=O)N1CCCC1c1ncc(C#CC#Cc2ccc(-c3cnc(C4CCCN4C(=O)[C@@H](NC(=O)OC)C(C)C)[nH]3)cc2)[nH]1)C(C)C.Cl (single isomer, unassigned; 13a)", "< 5.00"]
]}

###

Assay: Oral bioavailability in beagle dog at 2.5 mg/kg
Type: ADME, organism-based, Canis lupus familiaris
Settings: in vivo
ENDPOINT: bioavailability (%)

{"columns": ["COMPOUND STRUCTURE", "QUANTITATIVE RESULT"],
 "data": [
  ["COC(=O)N[C@@H](C(=O)N1CCC[C@H]1C(=O)Nc1ccc([C@H]2CC[C@@H](c3ccc(NC(=O)[C@@H]4CCCN4C(=O)[C@H](NC(=O)OC)C(C)C)cc3)N2c2ccc(C(C)(C)C)cc2)cc1)C(C)C", 57]
]}
